- Assay comment: Determination of pharmacokinetic parameters following intravenous and oral administration (rats)
- Type: in vivo, male Wistar rats
- Setup conditions: intravenous administration in rats
Below, each entry is listed alongside its reported t1/2.
Measured attribute: t1/2 (h)

1. CCCC(C)(N)CNC(=O)c1c(C)nc2c(OCc3c(F)ccc(F)c3F)cc(C)cn12 (single isomer, unassigned)    6.2
2. Cc1cc(OCc2c(F)cccc2F)c2nc(C)c(C(=O)NCC(C)(N)CCC(F)(F)F)n2c1 (single isomer, unassigned)    5.8
3. Cc1nc2c(OCc3c(F)cccc3F)cc(C(F)F)cn2c1C(=O)NCC(C)(N)CF (single isomer, unassigned; enantiomer b)    3.2
4. CCC(C)(N)CNC(=O)c1c(C)nc2c(OCc3c(F)ccc(F)c3F)cc(C)cn12 (single isomer, unassigned; enantiomer b)    4.1
5. Cc1cc(OCc2c(F)cccc2F)c2nc(C)c(C(=O)NCC(C)(N)CF)n2c1 (single isomer, unassigned; enantiomer b)    4.6
6. Cc1cc(OCc2c(F)ccc(F)c2F)c2nc(C)c(C(=O)NCC(C)(N)CCC(F)(F)F)n2c1 (single isomer, unassigned)    8.2
7. Cc1cc(OCc2c(F)ccc(F)c2F)c2nc(C)c(C(=O)NCC(C)(N)CF)n2c1 (single isomer, unassigned; enantiomer b)    3.8

----------
- Study target: recombinant guanylate cyclase reporter cell line (Rattus norvegicus, UniProt P19686+P20595)
- Construct: expressed in transfected cells; host or cells: recombinant reporter cell line
- Assay comment: Action on recombinant guanylate cyclase reporter cell line
- Format: cell-based
- Setup conditions: in some cases mean values from individual determinations
- Description: B-2. Action on Recombinant Guanylate Cyclase Reporter Cell Line The cellular action of the compounds according to the invention is determined on a recombinant guanylate cyclase reporter cell line, as described in F. Wunder et al., Anal. Biochem. 339, 104-112 (2005). Representative MEC values (MEC=minimal effective concentration) for the compounds according to the invention are shown in the following table (in some cases as mean values obtained from individual determinations): […]
Threshold-based label: MEC (minimal effective concentration) under 0.3 µM gives Met, MEC (minimal effective concentration) not under 0.3 µM gives Not met.

1) Cc1nc2c(OCC3CCCCC3)cccn2c1C(=O)NC(CN)c1ccc(F)c(F)c1 (single isomer, unassigned) [Example 179]    Not met
2) COC(=O)[C@@H](N)CCCCNC(=O)c1c(C)nc2c(OCc3c(F)cccc3F)cc(C)cn12    Met
3) Cc1cc(OCc2c(F)ccc(F)c2F)c2nc(C)c(C(=O)NCC(C)(C)N)n2c1    Met
4) Cc1nc2c(OCc3c(F)cccc3F)cc(F)cn2c1C(=O)NCC(C)(C)N    Not met
5) Cc1cc(OCc2c(F)cccc2F)c2nc(C)c(C(=O)NCC(N)C#N)n2c1 (racemic) [Example 400]    Not met

----------
- Study target: recombinant guanylate cyclase reporter cell line (Rattus norvegicus, UniProt P19686+P20595)
- Construct: expressed in transfected cells; host or cells: recombinant reporter cell line
- Sequence (P19686 1-690): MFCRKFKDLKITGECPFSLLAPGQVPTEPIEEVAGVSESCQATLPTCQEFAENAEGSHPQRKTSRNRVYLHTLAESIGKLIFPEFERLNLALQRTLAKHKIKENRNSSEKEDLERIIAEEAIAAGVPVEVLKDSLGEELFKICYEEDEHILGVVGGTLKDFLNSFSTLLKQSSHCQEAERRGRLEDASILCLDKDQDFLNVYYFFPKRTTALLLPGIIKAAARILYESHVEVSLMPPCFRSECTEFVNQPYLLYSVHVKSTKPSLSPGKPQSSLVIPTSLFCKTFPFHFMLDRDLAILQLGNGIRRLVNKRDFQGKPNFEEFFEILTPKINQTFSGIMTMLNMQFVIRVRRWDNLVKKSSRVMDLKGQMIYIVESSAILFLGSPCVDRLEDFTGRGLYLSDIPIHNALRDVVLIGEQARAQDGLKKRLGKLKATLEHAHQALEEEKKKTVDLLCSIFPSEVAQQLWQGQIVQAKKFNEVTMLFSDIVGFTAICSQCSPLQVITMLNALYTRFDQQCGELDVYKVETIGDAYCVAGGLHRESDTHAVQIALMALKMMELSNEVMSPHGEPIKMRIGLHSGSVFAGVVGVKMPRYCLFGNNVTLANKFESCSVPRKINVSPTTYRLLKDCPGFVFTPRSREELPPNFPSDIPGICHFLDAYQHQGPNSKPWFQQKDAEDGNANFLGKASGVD
- Sequence (P20595 1-619): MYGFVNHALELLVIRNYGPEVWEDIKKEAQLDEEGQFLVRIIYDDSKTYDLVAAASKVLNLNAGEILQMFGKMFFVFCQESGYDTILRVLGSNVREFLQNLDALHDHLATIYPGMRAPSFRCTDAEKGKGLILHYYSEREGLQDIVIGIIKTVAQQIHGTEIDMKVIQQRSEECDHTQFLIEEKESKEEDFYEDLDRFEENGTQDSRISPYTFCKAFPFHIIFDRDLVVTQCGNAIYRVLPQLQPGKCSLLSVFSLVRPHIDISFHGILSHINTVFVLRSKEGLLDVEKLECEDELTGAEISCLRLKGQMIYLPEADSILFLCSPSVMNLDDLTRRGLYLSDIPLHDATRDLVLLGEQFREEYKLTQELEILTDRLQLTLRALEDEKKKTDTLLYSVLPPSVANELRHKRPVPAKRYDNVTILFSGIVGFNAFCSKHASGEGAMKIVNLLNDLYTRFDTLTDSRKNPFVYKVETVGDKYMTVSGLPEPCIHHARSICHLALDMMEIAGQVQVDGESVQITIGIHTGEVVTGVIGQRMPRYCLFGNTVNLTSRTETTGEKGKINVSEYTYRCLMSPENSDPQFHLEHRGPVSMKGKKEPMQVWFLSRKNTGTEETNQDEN
- Assay comment: Action on recombinant guanylate cyclase reporter cell line
- Assay type: cell-based
- Setup conditions: in some cases mean values from individual determinations
Threshold-based label: MEC (minimal effective concentration) under 1 µM gives 1, MEC (minimal effective concentration) not under 1 µM gives 0.

1) CC=CCC(N)CNC(=O)c1c(C)nc2c(OCc3c(F)cccc3F)cc(C)cn12 (racemic) [Example 406]    1
2) COCC(C)(N)CNC(=O)c1c(C)nc2c(OCc3c(F)cccc3F)cc(Cl)cn12 (racemic) [Example 159]    1
3) Cc1nc2c(OCc3c(F)cccc3F)cccn2c1C(=O)NC(CN)c1ccccc1 (single isomer, unassigned; enantiomer b) [Example 18]    1
4) CCC(C)(N)CNC(=O)c1c(C)nc2c(OCc3c(F)cccc3F)cccn12 (racemic) [Example 254]    1
5) CCC(C)(N)CNC(=O)c1c(C)nc2c(OCc3c(F)ccc(F)c3F)cc(C)cn12 (single isomer, unassigned; enantiomer a) [Example 274]    1
6) COCC(CN)NC(=O)c1c(C)nc2c(OCc3c(F)cccc3F)cccn12 (single isomer, unassigned) [Example 123]    0
7) Cc1nc2c(OCc3c(F)cccc3F)cccn2c1C(=O)N[C@H]1CCNC1 [Example 61]    0
8) Cc1nc2c(OCc3c(F)cccc3F)cccn2c1C(=O)NC1CCNc2ccccc21 (single isomer, unassigned; ent-8) [Example 52]    1
9) Cc1cc(OCc2c(F)cccc2F)c2nc(C)c(C(=O)N[C@@H]3CCCC[C@H]3N)n2c1 [Example 251]    0
